// data source = PubChem BioAssay

Assay name: H69AR cell proliferation blockers – human, duplicate replicates, primary screen (AID 580);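 further: 100% = mean luminescence of untreated wells and 0% = no signal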
Particulars: H69AR lung tumor cells viability, ATP luminescence, 72 h; at 10 µM; hits give low values
Readout: viability (%)
Give bare numbers, in %.

[[record]]
molecule = "O=C(C1CCCN(c2nnc(-n3cccc3)s2)C1)N1CCC2(CC1)OCCO2 (stereo unspecified)"
readout = "viability"
unit_symbol = "%"
observed_value = 94.3

[[record]]
molecule = "O=C(COc1ccc2ccccc2c1)N1CCN(C2CCN(Cc3ccccc3)CC2)CC1"
readout = "viability"
unit_symbol = "%"
observed_value = 99.8

[[record]]
molecule = "COC(=O)c1cncn1C(C)c1ccccc1 (stereo unspecified)"
readout = "viability"
unit_symbol = "%"
observed_value = 95

[[record]]
molecule = "Cn1c(=O)cc(OCC(=O)N2CCN(C3CCCCC3)CC2)c2ccccc21"
readout = "viability"
unit_symbol = "%"
observed_value = 85.2

[[record]]
molecule = "Cc1ccc2nc(N3CCN(C)CC3)[nH]c2c1"
readout = "viability"
unit_symbol = "%"
observed_value = 93.6


I'm hoping you can list viability for every molecule here, please.
1. c1ccc2c(c1)[nH]c1cnccc12
2. Cc1ccc(S(=O)(=O)Cc2ccc(C(=O)N3CCC4(CC3)OCCO4)o2)cc1

Result ::
1: 83; 2: 90.6
